Origin of the recorded values: patent US5449592A

experimental details: pKa of couplers, spectrophotometric method
Format: physicochemical
applied conditions: spectrophotometric method (no asterisk); 2-butoxyethanol and water (30:70)
recorded metric: pKa
Answers are plain numbers.

Completed entries (count: 6):
CCCCC(Oc1ccc(C(C)(C)CC)cc1C(C)(C)CC)C(=O)Nc1ccc(CCc2n[nH]c3c(Cl)c(CC)nn23)cc1 (centres unmarked): 10.30
CCCCCCCCC(CCCCCC)CS(=O)(=O)CCc1n[nH]c2c(Cl)c(C)nn12 (centres unmarked): 9.11
CCCCCCCCCCCCCCCCS(=O)(=O)CCC(C)c1n[nH]c2c(Cl)c(C(C)C)nn12 (centres unmarked): 9.70
CCCCCCCCCCC(Oc1ccc(C(C)(C)c2ccc(O)cc2)cc1)C(=O)Nc1ccc(S(=O)(=O)CCc2n[nH]c3c(Cl)c(C)nn23)cc1 (centres unmarked): 9.71
CCCCCCCCOc1ccc(C)cc1S(=O)(=O)CCS(=O)(=O)CCC(C)c1n[nH]c2c(Cl)c(C(C)C)nn12 (centres unmarked): 9.68
CCC(C)(C)c1ccc(OCC(=O)Nc2ccc(S(=O)(=O)CC(C)(C)c3n[nH]c4c(Cl)c(C(C)(C)C)nn34)cc2)c(C(C)(C)CC)c1: 9.90

Would you be so kind as to report pKa for each listed record?
1. CCCCCCCCCCCCOc1ccc(S(=O)(=O)Nc2ccc(CCCc3n[nH]c4c(Cl)c(C)nn34)cc2)cc1
2. CCCCOc1ccc(C(C)(C)CC(C)(C)C)cc1S(=O)(=O)CCCc1n[nH]c2c(Cl)c(C(C)C)nn12

10.24
10.07
